test: activity coefficient (dimensionless); of the first substance listed, at infinite dilution; xn = mol fraction of the nth substance listed; details: 358.32 K; 101 kPa; Liquid; Chromatography; x1 = 0
Property Name: activity coefficient

- Compound: "CC(C)O [propan-2-ol] + CCCCCCCCCCCCCCCC(=O)O"
  Quantitative Readout: 1.29
- Compound: "CCCO [propan-1-ol] + CCCCCCCCCCCCCCCC(=O)O"
  Quantitative Readout: 1.5
- Compound: "CC(C)=O [acetone] + CCCCCCCCCCCCCCCC(=O)O"
  Quantitative Readout: 1.34
- Compound: "CC(C)CC(C)(C)C [2,2,4-trimethylpentane] + CCCCCCCCCCCCCCCC(=O)O"
  Quantitative Readout: 1.42
- Compound: "CCCCO [butan-1-ol] + CCCCCCCCCCCCCCCC(=O)O"
  Quantitative Readout: 1.43
- Compound: "CCC(C)O (stereo unspecified) [butan-2-ol] + CCCCCCCCCCCCCCCC(=O)O"
  Quantitative Readout: 1.12
